The reported numbers originate from paper PMC12137140.

target system: FIKK8 (Plasmodium falciparum, UniProt C0H4R8)
Construct: recombinant FIKK8 kinase domain
Sequence (C0H4R8 entry or part of it): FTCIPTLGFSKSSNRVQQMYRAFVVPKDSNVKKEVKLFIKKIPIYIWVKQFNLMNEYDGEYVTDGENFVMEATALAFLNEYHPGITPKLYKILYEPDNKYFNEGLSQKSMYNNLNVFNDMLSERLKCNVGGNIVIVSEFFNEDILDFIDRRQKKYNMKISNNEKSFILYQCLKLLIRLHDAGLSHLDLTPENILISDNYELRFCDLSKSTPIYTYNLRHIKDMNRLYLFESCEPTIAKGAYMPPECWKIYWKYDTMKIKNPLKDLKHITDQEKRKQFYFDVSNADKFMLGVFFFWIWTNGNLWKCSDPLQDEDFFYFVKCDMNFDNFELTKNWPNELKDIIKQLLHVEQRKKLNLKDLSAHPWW
test: biochemical
Binary label based on IC50 with cut-off 100 nM: below gives Yes, not below gives No.

compound | target system | assigned category
CCN(CC)Cc1ccc(Nc2nccc(-c3cnn4ncccc34)n2)cc1 [GW780056X] | FIKK8 (Plasmodium falciparum, UniProt C0H4R8) | No

For the next question, use this compound.
// query Is the reported IC50 for Cc1cccc(Nc2nc(N[C@H]3CCNC3)ncc2C(N)=O)c1 [GSK2197149A] strictly below 100 nM?
// result No

---

target system: FIKK8 (Plasmodium falciparum, UniProt C0H4R8)
Construct: recombinant FIKK8 kinase domain
test: biochemical
measure: IC50 (nM)
Write it as a number; the unit nM goes unstated.

compound | IC50 / nM
CCN1CCC(CC(=O)Nc2n[nH]c3nc(-c4cccs4)c(Br)cc23)CC1 [SB-739245-AC] | 238
O=C(Nc1n[nH]c2nnc(-c3cccnc3)cc12)C1CC1 [SB-675259-M] | 168
CN1CCC(n2cnc(-c3ccc(F)cc3)c2-c2ccnc(NC3CCNCC3)n2)CC1 [SB-229482] | 24
CCNc1nccc(-c2c(-c3ccc(F)cc3)ncn2C2CCN(C)CC2)n1 [SB-226605] | 98

Switching to the query record.
// query Tell me the measured IC50 of O=c1[nH]ccc2nc(N[C@@H]3CCNC3)nc(Nc3ccc4c(c3)S(=O)(=O)CC4)c12 [GSK2181306A] , please.
// result 31
